Numbers sourced from ChEMBL document CHEMBL6083277.

assay: AUC (0 to infinity) in male Sprague-Dawley rat at 15 mg/kg, po measured upto 30 hrs by LC-MS/MS analysis; format: ADME, organism-based; details: in vivo
METRIC: AUC(0-inf) (ng·h/mL)

CONC(=O)/C(=C/n1cnc(-c2cc(C(F)(F)F)cc(C(F)(F)F)c2)n1)c1cncnc1
5830

---

assay: Oral bioavailability in male Sprague-Dawley rat at 10 mg/kg measured upto 30 hrs by LC-MS/MS analysis; type: ADME, organism-based; conditions: in vivo
Below is a list of entries, each paired with its recorded bioavailability value.
METRIC: bioavailability (%)

CONC(=O)/C(=C/n1cnc(-c2cc(C(F)(F)F)cc(C(F)(F)F)c2)n1)c1cncnc1
56
NC(=O)/C(=C/n1cnc(-c2cc(C(F)(F)F)cc(C(F)(F)F)c2)n1)c1cncnc1 [ELTANEXOR]
52

---

test system: MOLM-13; assay: Antiproliferative activity against human MOLM-13 cells assessed as inhibition of cell growth incubated for 72 hrs by celltiter-glo assay; assay type: functional, cell-based; details: MOLM-13, 72 h
pIC50: −log10 of the molar value.
Below is a list of entries, each paired with its recorded pIC50 value.
METRIC: pIC50

CONC(=O)/C(=C/n1cnc(-c2cc(C(F)(F)F)cc(C(F)(F)F)c2)n1)c1cncnc1
6.32
NC(=O)/C(=C/n1cnc(-c2cc(C(F)(F)F)cc(C(F)(F)F)c2)n1)c1cncnc1 [ELTANEXOR]
6.36

---

experiment: Tmax in male Sprague-Dawley rat at 30 mg/kg, po measured upto 30 hrs by LC-MS/MS analysis; format: ADME, organism-based; conditions: in vivo
METRIC: Tmax (min)

CONC(=O)/C(=C/n1cnc(-c2cc(C(F)(F)F)cc(C(F)(F)F)c2)n1)c1cncnc1
18

---

experiment: Oral bioavailability in male Sprague-Dawley rat at 15 mg/kg measured upto 30 hrs by LC-MS/MS analysis; format: ADME, organism-based; settings: in vivo
METRIC: bioavailability (%)

CONC(=O)/C(=C/n1cnc(-c2cc(C(F)(F)F)cc(C(F)(F)F)c2)n1)c1cncnc1
52.1

---

Below is a list of entries, each paired with its recorded IC50 value.
tested on: MM1.S; assay: Antiproliferative activity against human MM1.S cells assessed as inhibition of cell growth incubated for 72 hrs by celltiter-glo assay; format: functional, cell-based
METRIC: IC50 (µM)

N#Cc1cn(/C=C(/C(N)=O)c2cncnc2)nc1-c1cc(C(F)(F)F)cc(C(F)(F)F)c1
1.22
CONC(=O)/C(=C/n1cnc(-c2cc(C(F)(F)F)cc(C(F)(F)F)c2)n1)c1cnc(Cl)nc1
0.485
CONC(=O)/C(=C/n1cnc(-c2cc(C(F)(F)F)cc(C(F)(F)F)c2)n1)c1ccc(OC)nc1
0.166
CC(C)(C)NNC(=O)/C(=C/n1cnc(-c2cc(C(F)(F)F)cc(C(F)(F)F)c2)n1)c1cncnc1
0.332

---

assay: Metabolic stability in mouse liver microsomes assessed as intrinsic clearance measured upto 60 mins in presence of NADPH by LC/MS-MS analysis; assay type: ADME, Microsome; details: read-out: CLH
METRIC: microsomal CLint (µL/min/mg)

NC(=O)/C(=C/n1cnc(-c2cc(C(F)(F)F)cc(C(F)(F)F)c2)n1)c1cncnc1 [ELTANEXOR]
15.6
CONC(=O)/C(=C/n1cnc(-c2cc(C(F)(F)F)cc(C(F)(F)F)c2)n1)c1cncnc1
12.6

---

Below is a list of entries, each paired with its recorded Cmax value.
experiment: Cmax in male Sprague-Dawley rat plasma at 10 mg/kg, IG measured at 6 hrs by LC-MS/MS analysis; format: ADME, organism-based; conditions: po
METRIC: Cmax (ng/mL)

NC(=O)/C(=C/n1cnc(-c2cc(C(F)(F)F)cc(C(F)(F)F)c2)n1)c1cncnc1 [ELTANEXOR]
141
CONC(=O)/C(=C/n1cnc(-c2cc(C(F)(F)F)cc(C(F)(F)F)c2)n1)c1cncnc1
18.9

---

assay: Metabolic stability in dog liver microsomes assessed as intrinsic clearance measured upto 60 mins in presence of NADPH by LC/MS-MS analysis; type: ADME, Canis lupus familiaris, Microsome; details: read-out: CLH
METRIC: microsomal CLint (µL/min/mg)

CONC(=O)/C(=C/n1cnc(-c2cc(C(F)(F)F)cc(C(F)(F)F)c2)n1)c1cncnc1
2.6
NC(=O)/C(=C/n1cnc(-c2cc(C(F)(F)F)cc(C(F)(F)F)c2)n1)c1cncnc1 [ELTANEXOR]
3.2

---

assay: Metabolic stability in human liver microsomes assessed as half life measured upto 60 mins in presence of NADPH by LC/MS-MS analysis; assay type: ADME, Microsome
METRIC: half-life

CONC(=O)/C(=C/n1cnc(-c2cc(C(F)(F)F)cc(C(F)(F)F)c2)n1)c1cncnc1
> 2 h
NC(=O)/C(=C/n1cnc(-c2cc(C(F)(F)F)cc(C(F)(F)F)c2)n1)c1cncnc1 [ELTANEXOR]
> 2 h

---

assay: AUC (0 to infinity) in male Sprague-Dawley rat at 2 mg/kg, iv measured upto 30 hrs by LC-MS/MS analysis; type: ADME, organism-based; conditions: in vivo
Below is a list of entries, each paired with its recorded AUC(0-inf) value.
METRIC: AUC(0-inf) (ng·h/mL)

CONC(=O)/C(=C/n1cnc(-c2cc(C(F)(F)F)cc(C(F)(F)F)c2)n1)c1cncnc1
1490
NC(=O)/C(=C/n1cnc(-c2cc(C(F)(F)F)cc(C(F)(F)F)c2)n1)c1cncnc1 [ELTANEXOR]
998

---

Below is a list of entries, each paired with its recorded IC50 value.
test system: MM1.S; test: Antiproliferative activity against human MM1.S cells assessed as inhibition of cell growth incubated for 72 hrs by celltiter-glo assay; type: functional, cell-based
METRIC: IC50 (nM)

NC(=O)/C(=C/n1cnc(-c2cc(C(F)(F)F)cc(C(F)(F)F)c2)n1)c1cccc2cccnc12
447
NC(=O)/C(=C/c1cnn(-c2cc(C(F)(F)F)cc(C(F)(F)F)c2)c1)c1cncc(F)c1
2360
CONC(=O)/C(=C/n1cnc(-c2cc(C(F)(F)F)cc(C(F)(F)F)c2)n1)c1cncnc1
87.1

---

assay: AUC (0 to infinity) in male Sprague-Dawley rat at 30 mg/kg, po measured upto 30 hrs by LC-MS/MS analysis; format: ADME, organism-based; settings: in vivo
METRIC: AUC(0-inf)

CONC(=O)/C(=C/n1cnc(-c2cc(C(F)(F)F)cc(C(F)(F)F)c2)n1)c1cncnc1
10400 ng·h/mL

---

experiment: Metabolic stability in human liver microsomes assessed as intrinsic clearance measured upto 60 mins in presence of NADPH by LC/MS-MS analysis; type: ADME, Microsome; details: read-out: CLH
METRIC: microsomal CLint

NC(=O)/C(=C/n1cnc(-c2cc(C(F)(F)F)cc(C(F)(F)F)c2)n1)c1cncnc1 [ELTANEXOR]
0.2 µL/min/mg
CONC(=O)/C(=C/n1cnc(-c2cc(C(F)(F)F)cc(C(F)(F)F)c2)n1)c1cncnc1
3.6 µL/min/mg

---

tested on: MV4-11; assay: Antiproliferative activity against human MV4-11 cells assessed as inhibition of cell growth incubated for 72 hrs by celltiter-glo assay; assay type: functional, cell-based; conditions: MV4-11, 72 h
pIC50: −log10 of the molar value.
Below is a list of entries, each paired with its recorded pIC50 value.
METRIC: pIC50

CONC(=O)/C(=C/n1cnc(-c2cc(C(F)(F)F)cc(C(F)(F)F)c2)n1)c1cncnc1
7.36
NC(=O)/C(=C/n1cnc(-c2cc(C(F)(F)F)cc(C(F)(F)F)c2)n1)c1cncnc1 [ELTANEXOR]
7.25

---

assay: Metabolic stability in mouse liver microsomes assessed as half life measured upto 60 mins in presence of NADPH by LC/MS-MS analysis; assay type: ADME, Microsome
METRIC: half-life

CONC(=O)/C(=C/n1cnc(-c2cc(C(F)(F)F)cc(C(F)(F)F)c2)n1)c1cncnc1
> 2 h
NC(=O)/C(=C/n1cnc(-c2cc(C(F)(F)F)cc(C(F)(F)F)c2)n1)c1cncnc1 [ELTANEXOR]
> 2 h

---

test: Metabolic stability in monkey liver microsomes assessed as half life measured upto 60 mins in presence of NADPH by LC/MS-MS analysis; assay type: ADME, Macaca mulatta, Microsome; settings: rhesus monkey
METRIC: half-life

NC(=O)/C(=C/n1cnc(-c2cc(C(F)(F)F)cc(C(F)(F)F)c2)n1)c1cncnc1 [ELTANEXOR]
> 2 h
CONC(=O)/C(=C/n1cnc(-c2cc(C(F)(F)F)cc(C(F)(F)F)c2)n1)c1cncnc1
> 2 h

---

test: AUC (0 to t) in male Sprague-Dawley rat at 15 mg/kg, po measured upto 30 hrs by LC-MS/MS analysis; type: ADME, organism-based; conditions: in vivo
METRIC: AUC(0-t) at 30 h (ng·h/mL)

CONC(=O)/C(=C/n1cnc(-c2cc(C(F)(F)F)cc(C(F)(F)F)c2)n1)c1cncnc1
5080
